Each item that follows carries a reported protein stability index.
B1: CCDC6 (parent)
chain: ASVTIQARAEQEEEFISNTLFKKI

Variants of: B1
Assay: protein stability index of a GFP-peptide fusion (GPS, HEK-293T) (PSI 1-6); higher = more stable;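 further: lentivirally expressed fusions sorted by FACS into six bins by GFP to DsRed ratio, PSI derived from sequencing read proportions per bin multiplied by bin number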
Settings: c terminus: a fixed tail appended
Respond using a number only.

Known protein stability index results, listed for orientation:
mut=E10P observed_result=2.83
mut=F21T observed_result=4.49
mut=I24H observed_result=4.37
mut=S2N observed_result=3.99
mut=E10M observed_result=2.95
mut=I24S observed_result=4.17

Would you kindly look at the next entry?
What measured protein stability index goes with I5D ?
4.84
